- Tested on: 439559-082-T-J2-PDC spheroids viability
- Procedure Text: Anticancer human tumor 439559-082-T-J2-PDC patient-derived colon adenocarcinoma cell line growth inhibition [GQUAD]
- Assay Conditions: second compound 0.1 µM; first compound 3.16 µM; stronger effect = lower value
- From the text: DNA G-quadruplex Stabilizer Agents in Combinations in Complex Spheroids A high-throughput screen of multi-cell type tumor spheroids was designed to identify active combinations of DNA G-quadruplex stabilizer agents and targeted small molecules. […] Compounds. […] If the clinical Cmax for an agent had not been determined, the highest concentration tested was 10 microM. […]
Could you mark each record class 1 if its viability, T/C falls strictly under 90%, and class 0 if it equals or exceeds it?

Please review the entries below; each comes with its answer.
Molecule: Cc1cccc(N(C)C(=O)C2C(O)CCN2c2nc(C)cc(C(F)(F)F)c2C#N)c1 (stereo not drawn) + Cc1cnc(CNC(=O)c2c(=O)c3ccc(N4CCCN(C)CC4)nc3n3c2sc2ccccc23)cn1
Target System: 439559-082-T-J2-PDC spheroids viability
Category Label: class 0
--
Molecule: C#Cc1c(F)ccc2cc(O)cc(-c3ncc4c(N5CC6CCC(C5)N6)nc(OCC56CCCN5CC(F)C6)nc4c3F)c12 (stereo not drawn) + Cc1[nH]c2ccc(F)cc2c1-c1nc2c3cccnc3c3ncccc3c2[nH]1
Target System: 439559-082-T-J2-PDC spheroids viability
Category Label: class 1
--
Molecule: COc1ncnc(C2CC2)c1-c1ncc2cnn(Cc3ccc(-c4nc(C(F)(F)F)cn4C(C)C)cc3)c2n1 + Cc1[nH]c2ccc(F)cc2c1-c1nc2c3cccnc3c3ncccc3c2[nH]1
Target System: 439559-082-T-J2-PDC spheroids viability
Category Label: class 1
--
Molecule: COc1ncnc(C2CC2)c1-c1ncc2cnn(Cc3ccc(-c4nc(C(F)(F)F)cn4C(C)C)cc3)c2n1 + CN(C)c1ccc(Nc2c3ccc(NC(=O)CCN4CCCC4)cc3nc3cc(NC(=O)CCN4CCCC4)ccc23)cc1
Target System: 439559-082-T-J2-PDC spheroids viability
Category Label: class 0
--
Molecule: C=CCn1c(=O)c2cnc(Nc3ccc(N4CCN(C)CC4)cc3)nc2n1-c1cccc(C(C)(C)O)n1 + Cc1[nH]c2ccc(F)cc2c1-c1nc2c3cccnc3c3ncccc3c2[nH]1
Target System: 439559-082-T-J2-PDC spheroids viability
Category Label: class 0

Please state whether viability, T/C is below 90% for C=CC(=O)N1CCN(c2nc(=O)n(-c3c(C)ccnc3C(C)C)c3nc(-c4c(O)cccc4F)c(F)cc23)C(C)C1 (stereo not drawn) + Cc1cnc(CNC(=O)c2c(=O)c3ccc(N4CCCN(C)CC4)nc3n3c2sc2ccccc23)cn1
class 0

Record CC(C)n1c(=O)n(C)c2cnc3cc(F)c(-c4ccc(OCCCN5CCCCC5)nc4)cc3c21 + CN(C)c1ccc(Nc2c3ccc(NC(=O)CCN4CCCC4)cc3nc3cc(NC(=O)CCN4CCCC4)ccc23)cc1 : is its viability, T/C strictly below 90%?
class 0

Does O=C(c1cc(Cc2n[nH]c(=O)c3ccccc23)ccc1F)N1CCN(C(=O)C2CC2)CC1 + CN(C)c1ccc(Nc2c3ccc(NC(=O)CCN4CCCC4)cc3nc3cc(NC(=O)CCN4CCCC4)ccc23)cc1 have viability, T/C strictly under 90%?
class 0

Consider Cc1cccc(N(C)C(=O)C2C(O)CCN2c2nc(C)cc(C(F)(F)F)c2C#N)c1 (stereo not drawn) + Cc1[nH]c2ccc(F)cc2c1-c1nc2c3cccnc3c3ncccc3c2[nH]1 . Does its viability, T/C lie strictly below 90%?
class 0

Lab note: confirm whether the reported viability, T/C for this molecule is below 90%, equality not counting. molecule: C=CC(=O)N1CCN(c2nc(=O)n(-c3c(C)ccnc3C(C)C)c3nc(-c4c(O)cccc4F)c(F)cc23)C(C)C1 (stereo not drawn) + Cc1[nH]c2ccc(F)cc2c1-c1nc2c3cccnc3c3ncccc3c2[nH]1
class 0

# strict comparison: is reported viability, T/C < 90%? input = CC(=O)O[C@H]1C(=O)[C@@]2(C)[C@H]([C@H](OC(=O)c3ccccc3)[C@]3(O)C[C@H](OC(=O)[C@H](O)[C@@H](NC(=O)c4ccccc4)c4ccccc4)C(C)=C1C3(C)C)[C@]1(OC(C)=O)CO[C@@H]1C[C@@H]2O + Cc1cnc(CNC(=O)c2c(=O)c3ccc(N4CCCN(C)CC4)nc3n3c2sc2ccccc23)cn1
class 1

Is it true that viability, T/C reported for C#Cc1c(F)ccc2cc(O)cc(-c3ncc4c(N5CC6CCC(C5)N6)nc(OCC56CCCN5CC(F)C6)nc4c3F)c12 (stereo not drawn) + CN(C)c1ccc(Nc2c3ccc(NC(=O)CCN4CCCC4)cc3nc3cc(NC(=O)CCN4CCCC4)ccc23)cc1 is less than 90%?
class 1

----------
- Test system: 439559-082-T-J2-PDC spheroids viability
- Procedure Text: Anticancer human tumor 439559-082-T-J2-PDC cell line growth inhibition [GQUAD];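 note: spheroids exposed to the agents for 7 days before readout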
- Assay Conditions: curve of first compound; second compound 0.316 µM
Outcome Measure: IC50

Reference set, count: 2
Compound: CC1COCCN1c1cc(C2(S(C)(=N)=O)CC2)nc(-c2ccnc3[nH]ccc23)n1 (stereo not drawn) + CN(C)c1ccc(Nc2c3ccc(NC(=O)CCN4CCCC4)cc3nc3cc(NC(=O)CCN4CCCC4)ccc23)cc1
Reported Value: > 10 µM
//
Compound: COc1ccc([C@@H](O)c2cc(-c3ncnc4cc(N5CCOCC5)ccc34)c(F)cc2Cl)nn1 + Cc1cnc(CNC(=O)c2c(=O)c3ccc(N4CCCN(C)CC4)nc3n3c2sc2ccccc23)cn1
Reported Value: > 10 µM

For the next question, use this compound.
Look up IC50 for this compound: COc1ncnc(C2CC2)c1-c1ncc2cnn(Cc3ccc(-c4nc(C(F)(F)F)cn4C(C)C)cc3)c2n1 + Cc1[nH]c2ccc(F)cc2c1-c1nc2c3cccnc3c3ncccc3c2[nH]1
> 10 µM

----------
- System: 439559-082-T-J2-PDC spheroids viability
- Procedure Text: Anticancer human tumor 439559-082-T-J2-PDC cell line growth inhibition [GQUAD]; active = viability on the fitted dose curve at most 10% of control; inactive = the rest;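 note: spheroids exposed to the agents for 7 days before readout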
- Assay Conditions: second compound 1 µM; first compound 3.16 µM
- Source text: DNA G-quadruplex Stabilizer Agents in Combinations in Complex Spheroids A high-throughput screen of multi-cell type tumor spheroids was designed to identify active combinations of DNA G-quadruplex stabilizer agents and targeted small molecules. […] Compounds. […] If the clinical Cmax for an agent had not been determined, the highest concentration tested was 10 microM. […]
Your reply should match one of these outcome classes. Y = active, N = inactive

Previously resolved entries follow.
Compound: CC(=O)O[C@H]1C(=O)[C@@]2(C)[C@H]([C@H](OC(=O)c3ccccc3)[C@]3(O)C[C@H](OC(=O)[C@H](O)[C@@H](NC(=O)c4ccccc4)c4ccccc4)C(C)=C1C3(C)C)[C@]1(OC(C)=O)CO[C@@H]1C[C@@H]2O + Cc1cnc(CNC(=O)c2c(=O)c3ccc(N4CCCN(C)CC4)nc3n3c2sc2ccccc23)cn1
Category Label: N
--
Compound: COc1ccc([C@@H](O)c2cc(-c3ncnc4cc(N5CCOCC5)ccc34)c(F)cc2Cl)nn1 + Cc1[nH]c2ccc(F)cc2c1-c1nc2c3cccnc3c3ncccc3c2[nH]1
Category Label: N
--
Compound: COc1cc(C2c3cc4c(cc3C(OC3OC5COC(C)OC5C(O)C3O)C3COC(=O)C23)OCO4)cc(OC)c1O (configuration not stated) + CN(C)c1ccc(Nc2c3ccc(NC(=O)CCN4CCCC4)cc3nc3cc(NC(=O)CCN4CCCC4)ccc23)cc1
Category Label: N

What call does the record list for Nc1ccn(C2OC(CO)C(O)C2(F)F)c(=O)n1 (configuration not stated) + Cc1cnc(CNC(=O)c2c(=O)c3ccc(N4CCCN(C)CC4)nc3n3c2sc2ccccc23)cn1 ?
N

# fetch the recorded call for C=CCn1c(=O)c2cnc(Nc3ccc(N4CCN(C)CC4)cc3)nc2n1-c1cccc(C(C)(C)O)n1 + Cc1[nH]c2ccc(F)cc2c1-c1nc2c3cccnc3c3ncccc3c2[nH]1 here
N

Which outcome was assigned to C=CC(=O)N1CCN(c2nc(=O)n(-c3c(C)ccnc3C(C)C)c3nc(-c4c(O)cccc4F)c(F)cc23)C(C)C1 (configuration not stated) + Cc1[nH]c2ccc(F)cc2c1-c1nc2c3cccnc3c3ncccc3c2[nH]1 in this test?
N

Record lookup: outcome of this test for CC1COCCN1c1cc(-c2ccnn2C)c2ccnc(-c3ccn[nH]3)c2n1 (configuration not stated) + CN(C)c1ccc(Nc2c3ccc(NC(=O)CCN4CCCC4)cc3nc3cc(NC(=O)CCN4CCCC4)ccc23)cc1 ?
N

Assay result, entry COc1cccc2c1C(=O)c1c(O)c3c(c(O)c1C2=O)CC(O)(C(=O)CO)CC3OC1CC(N)C(O)C(C)O1 (configuration not stated) + Cc1cnc(CNC(=O)c2c(=O)c3ccc(N4CCCN(C)CC4)nc3n3c2sc2ccccc23)cn1 — outcome?
N

Hey, what did the test say about COc1ccc([C@@H](O)c2cc(-c3ncnc4cc(N5CCOCC5)ccc34)c(F)cc2Cl)nn1 + CN(C)c1ccc(Nc2c3ccc(NC(=O)CCN4CCCC4)cc3nc3cc(NC(=O)CCN4CCCC4)ccc23)cc1 ?
N

Any idea what this test logged for CC(C)(O)C1CCC(Nc2ccc3ncc(-c4cccc(C(F)(F)F)c4)n3n2)CC1 (configuration not stated) + Cc1cnc(CNC(=O)c2c(=O)c3ccc(N4CCCN(C)CC4)nc3n3c2sc2ccccc23)cn1 ?
N

Which outcome was assigned to O=C(NO)c1cnc(N2CCN(S(=O)(=O)c3ccc4ccccc4c3)CC2)nc1 + CN(C)c1ccc(Nc2c3ccc(NC(=O)CCN4CCCC4)cc3nc3cc(NC(=O)CCN4CCCC4)ccc23)cc1 in this test?
Y

Call for entry CC(=O)O[C@H]1C(=O)[C@@]2(C)[C@H]([C@H](OC(=O)c3ccccc3)[C@]3(O)C[C@H](OC(=O)[C@H](O)[C@@H](NC(=O)c4ccccc4)c4ccccc4)C(C)=C1C3(C)C)[C@]1(OC(C)=O)CO[C@@H]1C[C@@H]2O + CN(C)c1ccc(Nc2c3ccc(NC(=O)CCN4CCCC4)cc3nc3cc(NC(=O)CCN4CCCC4)ccc23)cc1 :
N
